# recordedConditions: in methanol, 300.55 K
parameterMeasured: solubility (mole fraction)
Form rule: numeric answer, no unit written next to it.

Summary for this compound, `CO/N=C(\C(=O)N[C@@H]1C(=O)N2C(C(=O)O)=C(CSC(=O)c3ccco3)CS[C@H]12)c1csc(N)n1.Cl` : solubility (mole fraction) is 0.0116

---

# recordedConditions: in methanol, 283.25 K
parameterMeasured: solubility (mole fraction)
Form rule: numeric answer, no unit written next to it.

Summary for this compound, `CO/N=C(\C(=O)N[C@@H]1C(=O)N2C(C(=O)O)=C(CSC(=O)c3ccco3)CS[C@H]12)c1csc(N)n1.Cl` : solubility (mole fraction) is 0.00952

---

# recordedConditions: in methanol, 320.65 K
parameterMeasured: solubility (mole fraction)
Form rule: numeric answer, no unit written next to it.

Summary for this compound, `CO/N=C(\C(=O)N[C@@H]1C(=O)N2C(C(=O)O)=C(CSC(=O)c3ccco3)CS[C@H]12)c1csc(N)n1.Cl` : solubility (mole fraction) is 0.0155
